The measurements presented in this section are drawn from ChEMBL document CHEMBL1148764.

# test system: Prostaglandin G/H synthase 2 (Homo sapiens)
# setup conditions: at 100 µM
# Description: Inhibition of human recombinant COX2 by measuring PGE2 formation at 100 uM
Documented inhibition across a set of compounds
Numeric only. Scale: %

Field: example entries. Status: answers known.
| compound | u | inhibition |
| --- | --- | --- |
| O=C(O)Cc1ccc(-n2nc(C(F)(F)F)cc2-c2ccc(C(F)(F)F)cc2)cc1 | % | 93 |
| Cc1ccc(-c2cc(C(F)(F)F)nn2-c2ccc(CC(=O)O)cc2)cc1 | % | 95 |
| CCOC(=O)c1ccc(-n2nc(C(F)(F)F)cc2-c2ccc(C)cc2)cc1 | % | 87 |
| O=C(O)c1ccc(-n2nc(C(F)(F)F)cc2-c2ccc(C(F)(F)F)cc2)cc1 | % | 6 |
| Cc1ccc(-c2cc(C(F)(F)F)nn2-c2ccc(C(=O)O)cc2)cc1 | % | 26 |

Prompt line: API: value(readout= inhibition, system= Prostaglandin G/H synthase 2 (Homo sapiens), query= Cc1ccc(-c2cc(-c3ccccc3)nn2-c2ccc(S(N)(=O)=O)cc2)cc1 )
Response line: 92

Prompt line: Record Cc1ccc(-c2cc(C(F)(F)F)nn2-c2ccc([S+](C)[O-])cc2)cc1 (stereo unspecified) : what is its inhibition with Prostaglandin G/H synthase 2 (Homo sapiens)?
Response line: 99

Prompt line: Form: Entry = CCOC(=O)c1ccc(-n2nc(C(F)(F)F)cc2-c2ccc(C(F)(F)F)cc2)cc1 | System = Prostaglandin G/H synthase 2 (Homo sapiens) | inhibition = ____
Response line: 96

Prompt line: Form field - read-out: inhibition; system: Prostaglandin G/H synthase 2 (Homo sapiens); submitted item: Cc1ccc(-c2cc(C(=O)O)nn2-c2ccc(S(N)(=O)=O)cc2)cc1
Response line: 43

Prompt line: Request - read-out inhibition | tested on Prostaglandin G/H synthase 2 (Homo sapiens) | compound CSc1ccc(-n2nc(C(F)(F)F)cc2-c2ccc(C)cc2)cc1;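 also: recombinant enzyme assay, activity read out as PGE2 generation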
Response line: 99

Prompt line: // fetch Prostaglandin G/H synthase 2 (Homo sapiens) inhibition for Cc1ccc(-c2cc(C(F)(F)F)nn2-c2ccc(S(C)(=O)=O)cc2)cc1
Response line: 92
